Tested on: LOX IMVI melanoma
Assay: NCI-60 one-dose screen, 48 h (100 = growth as untreated, 0 = no growth, -100 = all killed)
Settings: 10 µM
Procedure: Growth inhibition of the LOX IMVI human tumor cell line is measured as a screen for anti-cancer activity. Cells are grown in 96 well plates and exposed to the test compound for 48 hours. Compounds are tested at a single concentration, which is 10^-5 M for most compounds. The reported endpoint is percent growth (GI% or GIPRCNT), where numbers from 0 - 100% represent growth inhibition, and numbers from -100% - 0 represent cell death. For example, a value of 40 represents 60% growth inhibition. […]
Compounds without any hit were thinned out: in the full panel of roughly 83,000, 20% have a hit.
Tag: Condition met if measured growth is not below 70%, Condition not met if it is.

1. COc1cc(/C=C/c2cc(/C=C/c3ccc(O)c(OC)c3)n(C(=O)Nc3ccccc3Cl)n2)ccc1O	Condition not met
2. COc1ccc(-c2cc(-c3ccc(Cl)cc3)nc(SCCCCCCC(=O)NO)n2)cc1OC	Condition not met
3. CC(=O)COc1ccc(Cl)cc1Cl	Condition met
4. NC(CSC(c1ccccc1)(c1ccccc1)c1cccc2ccccc12)C(=O)O (stereo unspecified)	Condition met
5. O=C(O)c1ccc(-n2cc(CNc3ccc(Cl)cc3)c(-c3ccccc3)n2)cc1	Condition met
6. COc1cc(-c2nn(-c3cccc(NC(=O)NCCNC(=O)c4ccccc4)c3)cc2-c2ccncc2)ccc1Cl	Condition not met
7. O=[N+]([O-])c1ccc2ncccc2c1Cl	Condition not met
8. CCC(=O)OC1CCC2C3CCC(=O)OC3C(C)(CCC(=O)O)CC12C (stereo unspecified)	Condition not met
9. CCOC(=O)c1cocc1C(=O)O	Condition met
10. COc1ccccc1N1CCCSC1=Nc1ccccc1	Condition met
11. S=C(SSC(=S)N(c1ccccc1)c1ccccc1)N(c1ccccc1)c1ccccc1	Condition met
12. CCCCN1C(=O)CC(SC2CC(=O)N(CCCC)C2=O)C1=O (stereo unspecified)	Condition met
13. COc1cc2c3c(n(C4CCN(C)CC4)c(=O)c2cc1OC)-c1cc2c(cc1C3=O)OCO2	Condition not met
14. Nc1nc(-c2cccnc2)nc2c1sc(=S)n2-c1ccccc1	Condition met
15. CCn1cc(C(=O)O)c(=O)c2cc(F)c(N3CCNCC3)cc21	Condition met
16. COc1cc(-c2ccc(N=Nc3ccc4c(S(=O)(=O)O)ccc(N)c4c3O)c(OC)c2)ccc1N=Nc1ccc2c(S(=O)(=O)O)ccc(N)c2c1O	Condition met
17. CCCCC(CC)CN=C(N)NC(N)=NCCCCCCN=C(N)NC(N)=NCC(CC)CCCC (stereo unspecified)	Condition not met
18. Nc1ccn(Cc2nnc(CCC(=O)c3nc4ccccc4[nH]3)o2)c(=O)n1	Condition not met
19. CCOC(=O)c1cc(C(=O)c2cc(OC)c(OC)c(OC)c2)n2nc(C)ccc12	Condition not met
20. COc1ccc(C2CC(c3cccs3)=NN2c2ccc(S(N)(=O)=O)cc2)cc1 (stereo unspecified)	Condition met
21. CCOC(=O)c1cc(C(=O)c2cc(OC)cc(OC)c2)n2nc(C)ccc12	Condition not met
22. CC(C)(C)OC(=O)CN1CCc2c(sc3ncnc(N/N=C/c4cccc5ccccc45)c23)C1	Condition not met
23. COc1ccc(NC(=O)C2CC3C=CC2C3)c([N+](=O)[O-])c1 (stereo unspecified)	Condition met
24. COc1cc2c(cc1OC)C(C(CCCCCC(CCC(C)C)C1NCCc3cc(OC)c(OC)cc31)CCC(C)C)NCC2 (stereo unspecified)	Condition not met
25. CC1/C=C/C=C/C=C/C=C/C=C/C=C/C=C/C(O[C@@H]2O[C@H](C)[C@H](O)[C@@H](O)[C@@H]2N)CC(O)C(C(=O)O)C(O)CC(=O)CC(O)CC(O)CC(O)CC(=O)CCCC(=O)CC(=O)OC1C(C)CC(C)C(O)CC(=O)c1ccc(N)cc1 (stereo partly specified)	Condition not met
26. COc1ccc(C(=O)c2cc3c(OC)c(OC)c(OC)cc3[nH]2)cc1	Condition not met
27. CCN(CC)CCOc1cccc2c1C(=O)c1ccccc1C2=O	Condition met
28. Cc1nn(-c2ccc(-c3ccc(OC(F)(F)F)cc3)cc2)c2nc(Cc3ccccc3)nc(N)c12	Condition not met
29. COC(=O)c1c[nH]c2cc(OC(C)C)c(OC(C)C)cc2c1=O	Condition met
30. O=C1CSC(=S)N1/N=C/c1ccc(Cl)s1	Condition met
31. CCOC(=O)c1sc2ncnc(Nc3ccc(NC(=O)Nc4ccc(Cl)cc4)cc3)c2c1C	Condition not met
32. CCOC(=O)C1=CSC2=NC3=C(CCC/C3=C\c3ccc(Cl)cc3)C(c3ccc(Cl)cc3)N12 (stereo unspecified)	Condition met
33. OCCn1cccn1	Condition met
34. c1ccc(CCCCc2ccc3ccccc3n2)cc1	Condition met
35. OCC1OC(n2ccc3c(NO)ncnc32)C(O)C1O (stereo unspecified)	Condition not met
36. COc1cc2cc(Oc3ccc(NC(=O)Nc4cccc(C(F)(F)F)c4)cc3)c(C)nc2cc1OC	Condition not met
37. C/C=C/CSC(C)(C)C(=O)NC	Condition met
38. COC1OC(COS(=O)OC)C(O)C(O)C1OS(=O)OC (stereo unspecified)	Condition met
39. Cc1ccc(-c2c3c(N)nc(-c4cccnc4)nc3nc3c2c(C)nn3-c2ccccc2)cc1	Condition met
40. OC(CCN1CCCC1)(c1ccccc1)C1CCCCC1 (stereo unspecified)	Condition met
